Target: recombinant poly(ADP-ribose) polymerase 2 (PARP2) (Homo sapiens)
Sequence (Q9UGN5 whole entry): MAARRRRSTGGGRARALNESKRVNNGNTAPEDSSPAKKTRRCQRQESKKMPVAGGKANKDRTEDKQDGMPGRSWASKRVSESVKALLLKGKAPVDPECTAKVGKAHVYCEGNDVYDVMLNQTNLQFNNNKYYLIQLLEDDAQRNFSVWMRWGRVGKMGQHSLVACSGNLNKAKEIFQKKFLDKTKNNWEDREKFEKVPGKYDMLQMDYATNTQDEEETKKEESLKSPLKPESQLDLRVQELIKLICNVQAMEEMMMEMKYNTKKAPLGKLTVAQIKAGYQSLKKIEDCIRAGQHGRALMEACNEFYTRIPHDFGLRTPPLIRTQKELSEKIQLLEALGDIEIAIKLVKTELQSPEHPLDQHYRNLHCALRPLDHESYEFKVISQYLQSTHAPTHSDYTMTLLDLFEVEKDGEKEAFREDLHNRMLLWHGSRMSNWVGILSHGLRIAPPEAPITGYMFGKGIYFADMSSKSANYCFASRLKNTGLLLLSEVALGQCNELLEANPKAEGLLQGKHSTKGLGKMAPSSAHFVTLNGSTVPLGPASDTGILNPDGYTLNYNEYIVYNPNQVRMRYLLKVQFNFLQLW
Experiment: PARP2 chemiluminescent assay
Format: biochemical
Conditions: PARP2 enzyme activity, chemiluminescence, 40 ng enzyme/well
Value type: IC50 (nM)
Write the answer as a number in nM, unit excluded.

Compound	IC50 (nM)
CNC(=O)c1ccc(-n2cc3c(n2)CN(Cc2ccc4c([nH]c(=O)c5occc54)c2F)C3)c(F)n1 [Example 54]	255

// field: IC50; key: CNC(=O)c1ccc(-n2cc3c(c2)CN(Cc2ccc4c([nH]c(=O)c5c(F)cnn54)c2F)C3)c(F)n1 [Example 62] ; value = 278

// field: IC50; key: CNC(=O)c1ccc(-n2cc3c(n2)CN(Cc2ccc4c([nH]c(=O)c5c(F)cnn54)c2F)C3)cn1 [Example 13] ; value = 42
